# ASSAY_OVERVIEW: Oral fluid concentration-time course of SCs and metabolites in consumers after smoking self-administration (GC-MS and UHPLC-HRMS)
# TEST_SETTINGS: female, human, po, 1 mg
PARAMETER_MEASURED: concentration at 20 min

COMPOUND	RESULT_VALUE
Cc1ccc(C(=O)c2cn(CCCC(C)O)c3ccccc23)c2ccccc12 (stereo not shown)	0.29 ng/mL

* * *

# ASSAY_OVERVIEW: Oral fluid concentration-time course of SCs and metabolites in consumers after smoking self-administration (GC-MS and UHPLC-HRMS)
# TEST_SETTINGS: female, human, po, 3 mg, second peak concentration (Cmax) in OF, consumer smoked JWH-210 3 mg, UHPLC-HRMS, after 2 h
The compounds listed here are annotated with their Cmax.
PARAMETER_MEASURED: Cmax (ng/mL)

COMPOUND	RESULT_VALUE
CCc1ccc(C(=O)c2cn(CCCCCO)c3ccccc23)c2ccccc12 [JWH-210 N-(5-OH)]	0.61
CCc1ccc(C(=O)c2cn(CCCC(C)O)c3ccccc23)c2ccccc12 (centres unmarked) [JWH-210 N-(4-OH)]	0.98

* * *

# ASSAY_OVERVIEW: Oral fluid concentration-time course of SCs and metabolites in consumers after smoking self-administration (GC-MS and UHPLC-HRMS)
# TEST_SETTINGS: female, human, po, 1 mg, peak concentration (Cmax) in OF, consumer smoked JWH-122 1 mg, by GC-MS, at 20 min

SMILES_DATA	Cmax
CCCCCn1cc(C(=O)c2ccc(C)c3ccccc23)c2ccccc21	4 ng/mL

* * *

# ASSAY_OVERVIEW: Oral fluid concentration-time course of SCs and metabolites in consumers after smoking self-administration (GC-MS and UHPLC-HRMS)
# TEST_SETTINGS: female, human, po, 3 mg, peak concentration (Cmax) in OF, consumer smoked JWH-210 3 mg, by UHPLC-HRMS, at 20 min
Each item that follows carries a reported Cmax.
PARAMETER_MEASURED: Cmax

MOLECULE	PARAMETER_MEASURED	RESULT_VALUE
CCCCCn1cc(C(=O)c2ccc(CC)c3ccccc23)c2ccccc21 [JWH-210]	Cmax	7.3 ng/mL
CCc1ccc(C(=O)c2cn(CCCCCO)c3ccccc23)c2ccccc12 [JWH-210 N-(5-OH)]	Cmax	0.66 ng/mL
CCc1ccc(C(=O)c2cn(CCCC(C)O)c3ccccc23)c2ccccc12 (stereo not drawn) [JWH-210 N-(4-OH)]	Cmax	0.29 ng/mL

* * *

# ASSAY_OVERVIEW: Oral fluid concentration-time course of SCs and metabolites in consumers after smoking self-administration (GC-MS and UHPLC-HRMS)
# TEST_SETTINGS: female, human, po, 1 mg, peak concentration (Cmax) in OF, consumer smoked JWH-122 1 mg, by UHPLC-HRMS, at 20 min

SMILES_DATA	Cmax [ng/mL]
CCCCCn1cc(C(=O)c2ccc(C)c3ccccc23)c2ccccc21	3.14

* * *

# ASSAY_OVERVIEW: Oral fluid concentration-time course of SCs and metabolites in consumers after smoking self-administration (GC-MS and UHPLC-HRMS)
# TEST_SETTINGS: female, human, po, 1 mg
PARAMETER_MEASURED: Tmax (min)

SMILES_DATA	RESULT_VALUE
CCCCCn1cc(C(=O)c2ccc(C)c3ccccc23)c2ccccc21	20
